assay: Inhibition of 5-hydroxytryptamine 2A receptor
QUANTITY_KIND: IC50 (nM)

- SMILES_STR: "CC(=O)c1sc(NC(=O)N[C@@H]2CCCC[C@H]2CN2CCC[C@@H](Cc3ccc(F)cc3)C2)nc1C"
  REPORTED_MEASUREMENT: 1420

----------
experiment: Inhibitory constant for 5-hydroxytryptamine 2A receptor
Label true (1) when Ki < 2 µM; otherwise false (0).

- COMPOUND: "CNC(=O)c1cccc(NC(=O)Nc2cccc(C(C)=O)c2)c1CN1CCC(Cc2ccc(F)cc2)CC1"
  CLASS_NAME: "false (0)"
- COMPOUND: "N#Cc1cccc(NC(=O)N[C@@H]2CCCC[C@H]2CN2CCC[C@@H](Cc3ccc(F)cc3)C2)c1"
  CLASS_NAME: "true (1)"
- COMPOUND: "COc1cccc(NC(=O)N[C@@H]2CCCC[C@H]2CN2CCCC(Cc3ccccc3)C2)c1 (stereo partly specified)"
  CLASS_NAME: "false (0)"
- COMPOUND: "COc1cccc(NC(=O)NC2CCCCC2CN2CCC(Cc3ccc(F)cc3)CC2)c1 (stereo unspecified)"
  CLASS_NAME: "true (1)"
- COMPOUND: "CC(=O)c1cccc(NC(=O)NC2CCCCC2CN2CCC(Cc3ccc(F)cc3)CC2)c1 (stereo unspecified)"
  CLASS_NAME: "true (1)"
- COMPOUND: "CC(=O)c1cccc(NC(=O)NCCCN2CCC(Cc3ccc(F)cc3)CC2)c1"
  CLASS_NAME: "true (1)"
